molecular target: human Casein Kinase 1-alpha (CK1a), CSNK1A1 (gene 1452); experiment: NVS_ENZ_hCK1a: NovaScreen (NVS) Enzymatic Assay for human Casein Kinase 1-alpha (CK1a)
Inconclusive results are not listed. Calls of active or inactive are those of the source. Rule for the calls: active = hit-call score of the fitted dose curve at least 0.9, where 1 is the maximum; inconclusive = response in the unintended direction; inactive = score below 0.9.
Hello, when you answer, please use one of the following outcomes: active, inactive

Would you mind telling me which call this test gave N#CSCSC#N ?
inactive

Would you mind telling me which call this test gave O=C(O)C1(C(=O)Nc2ccc(Cl)cc2Cl)CC1 ?
active

Would you mind telling me which call this test gave O=S(=O)(O)C(F)(F)C(F)(F)C(F)(F)C(F)(F)C(F)(F)C(F)(F)C(F)(F)C(F)(F)F ?
active

Would you mind telling me which call this test gave CO/C=C(/C(=O)OC)c1ccccc1Oc1cc(Oc2ccccc2C#N)ncn1 ?
inactive

Would you mind telling me which call this test gave O=C(Nc1ccc([N+](=O)[O-])cc1Cl)c1cc(Cl)ccc1O ?
inactive
